The measurements presented in this section are drawn from patent US7183260B2.

Molecular target: UniProt P55212
Sequence (P55212 24-179 limits assumed): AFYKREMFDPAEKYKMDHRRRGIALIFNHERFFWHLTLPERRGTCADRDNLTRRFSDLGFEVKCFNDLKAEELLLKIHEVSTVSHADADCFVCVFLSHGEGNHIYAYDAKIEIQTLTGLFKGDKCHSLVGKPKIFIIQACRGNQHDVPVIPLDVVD
Sequence (P55212 194-293 limits assumed): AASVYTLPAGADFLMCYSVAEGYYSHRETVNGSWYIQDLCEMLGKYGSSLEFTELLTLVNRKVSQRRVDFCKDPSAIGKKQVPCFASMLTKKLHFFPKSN
Experiment: Dissociation constant Ki and irreversible rate constant k3 for irreversible inhibitors (Mch2)
Assay type: biochemical
Settings: continuous assay 60 min, reaction initiated by adding enzyme to substrate-inhibitor mixture
Quantity Measured: MCH-2 k3/Ki

Query: Give the reported MCH-2 k3/Ki for this compound. C[C@H](NC(=O)C(=O)Nc1ccccc1-c1ccccc1)C(=O)N[C@@H](CC(=O)O)C(=O)COP(=O)(c1ccccc1)c1ccccc1
Response: 317,000 moles^−1 seconds^−1

Query: Fill in MCH-2 k3/Ki for record C[C@H](NC(=O)C(=O)Nc1ccccc1C(C)(C)C)C(=O)N[C@@H](CC(=O)O)C(=O)COC(=O)c1c(Cl)cccc1Cl [Example 37]
Response: 191,000 moles^−1 seconds^−1

Query: Give the measured MCH-2 k3/Ki for C[C@H](NC(=O)C(=O)NC1CCCCC1)C(=O)N[C@@H](CC(=O)O)C(=O)COP(=O)(c1ccccc1)c1ccccc1
Response: 97,500 moles^−1 seconds^−1

Query: Answer with the recorded MCH-2 k3/Ki for the compound listed here: C[C@H](NC(=O)C(=O)Nc1cc(C(F)(F)F)ccc1N1CCCC1)C(=O)N[C@@H](CC(=O)O)C(=O)COP(=O)(c1ccccc1)c1ccccc1
Response: 202,000 moles^−1 seconds^−1

Query: Read off the recorded MCH-2 k3/Ki for C[C@H](NC(=O)C(=O)Nc1cc(C(C)(C)C)ccc1C(C)(C)C)C(=O)N[C@@H](CC(=O)O)C(=O)COc1c(F)c(F)cc(F)c1F
Response: 192,000 moles^−1 seconds^−1

Query: Answer with the recorded MCH-2 k3/Ki for the compound listed here: CC(C)[C@H](NC(=O)C(=O)Nc1ccccc1Br)C(=O)N[C@@H](CC(=O)O)C(=O)COc1c(F)c(F)cc(F)c1F
Response: 230,000 moles^−1 seconds^−1

Query: Fill in MCH-2 k3/Ki for record CC(C)[C@H](NC(=O)C(=O)NC1CCCc2ccccc21)C(=O)N[C@@H](CC(=O)O)C(=O)COc1c(F)c(F)cc(F)c1F (stereo partly shown)
Response: 160,000 moles^−1 seconds^−1
